log10(IC50) reference
Tested on: SH-SY5Y
Test: Cytotoxicity against SH-SY5Y human neuroblastoma cell line was determined
Assay type: functional, cell-based
Would you kindly interpret these values as log10 of IC50 expressed in nM?

structure-as-smiles: COc1ccc(-c2nonc2-c2cc(OC)c(OC)c(OC)c2)cc1
log10(IC50): 0.95

Hey, SH-SY5Y data for COc1ccc(-c2nonc2-c2cc(OC)c(O)c(OC)c2)cc1 : log10(IC50) came out at 2.29

Hey, SH-SY5Y data for COc1ccc(-c2nonc2-c2cc(OC)c(OC)c(OC)c2)cc1[N+](=O)[O-] : log10(IC50) came out at 1.86

Hey, SH-SY5Y data for COc1ccc(/C=C\c2cc(OC)c(OC)c(OC)c2)cc1O : log10(IC50) came out at 0.76

Hey, SH-SY5Y data for COc1ccc(C(=O)C(=O)c2cc(OC)c(OC)c(OC)c2)cc1O : log10(IC50) came out at 2.72

====

IC50 reference
Tested on: SH-SY5Y
Experiment: Cytotoxicity against SH-SY5Y human neuroblastoma cell line was determined
Format: functional, cell-based
Write down the numeric answer in nM and omit the unit.

Solved cases (3 shown):
structure-as-smiles: COc1ccc(-c2nonc2-c2cc(OC)c(O)c(OC)c2)cc1O
property-name: IC50
output-unit: nM
observed-result: 17.5
//
structure-as-smiles: COc1ccc(-c2nonc2-c2cc(OC)c(OC)c(OC)c2)cc1N
property-name: IC50
output-unit: nM
observed-result: 1.6
//
structure-as-smiles: COc1ccc(-c2nonc2-c2cc(OC)c(OC)c(OC)c2)cc1O
property-name: IC50
output-unit: nM
observed-result: 1.4

Shifting focus to the compound that follows.
Hey, SH-SY5Y data for COc1ccc(C(=N/O)/C(=N\O)c2cc(OC)c(OC)c(OC)c2)cc1O : IC50 came out at 254
